Below: a set of entries, each annotated with reported TGI.
system: 786-0 renal; assay: NCI tumour cell line growth inhibition, 48 h
Lab book: enter the figure in µM, no units written.

entry-smiles | experimental-system | numeric-readout
OCc1ccc(N(Cc2ccc(F)cc2)CC2CC2)cc1Cl | 786-0 renal | 21.3

Consider the record given below.
Given "C=C1C(=O)O[C@H]2[C@H]1CC/C(COC(=O)CCCC(=O)OC/C1=C/CC[C@@]3(C)O[C@H]3[C@H]3OC(=O)C(=C)[C@@H]3CC1)=C\CC[C@@]1(C)O[C@@H]21" , respond with its TGI.
2.79

====

test system: T-47D breast; assay: NCI tumour cell line growth inhibition, 48 h
// reported TGI for each item listed

molecule | TGI
CCCNC(=S)N=Nc1c(O)[nH]c2ccccc12 | > 100 µM
C/C(=N\NC(=O)c1ccncc1)c1cccc(F)c1 | > 10 µM
C/C(=N\NC(=O)c1ccncc1)c1ccccc1Cl | > 100 µM
CC(=O)C1C(=O)C(=O)N(c2ccc(Cl)c(Cl)c2)C1=O (stereo unspecified) | > 100 µM

Output reported TGI of the molecule O=C1c2cc3ccccc3cc2C2(c3ccc(Cl)cc3)NCCN12 (stereo unspecified) on T-47D breast.
> 100 µM

Jot down TGI (T-47D breast) of "ClCCn1cnc2c(SCc3ccccc3Cl)ncnc21" .
79.5 µM

All figures here come from PubChem BioAssay (NCI).
